Each recorded value in this set is attributed to ChEMBL document CHEMBL4368888.

Catalogue of compounds with associated IC50
Test system: HeLa
Assay: Antiproliferative activity against human HeLa cells after 48 hrs by MTT assay
Format: functional, cell-based
Give a bare numeral; the unit µM is implied.

compound structure string	unit symbol	IC50
O=C(NCCc1c[nH]c2ccc(Br)cc12)c1ccccc1O	µM	79
Cc1ccc(C(=O)NCCc2c[nH]c3ccc(Cl)cc23)c(O)c1	µM	64
O=C(NCCc1c[nH]c2ccc(Br)cc12)c1cc(Cl)ccc1O	µM	80
Cc1ccc(C(=O)NCCc2c[nH]c3ccc(Br)cc23)c(O)c1	µM	61
COc1ccc2[nH]cc(CCNC(=O)c3ccc(C)cc3O)c2c1	µM	80
O=C(NCCc1c[nH]c2ccc(Cl)cc12)c1cc(Cl)ccc1O	µM	80
COc1ccc2[nH]cc(CCNC(=O)c3ccccc3O)c2c1	µM	82
Cc1cccc(C(=O)NCCc2c[nH]c3ccccc23)c1O	µM	82

Input: Form field - read-out: IC50; system: HeLa; submitted item: Cc1cccc(C(=O)NCCc2c[nH]c3ccc(Cl)cc23)c1O
Output: 56
